These entries and their values trace back to a melting point compilation (Tetko et al.).

measurementLabel: melting point (°C)
One number for each entry, in °C.

Kindly give each listed record's melting point.
1. COCCOCCOc1cc2c3cc(OCCOCCOC)c(OCCOCCOC)cc3c3cc(OCCOCCOC)c(OCCOCCOC)cc3c2cc1OCCOCCOC
2. CC(C)(C)c1cc(C(C)(C)C)c2op(Op3oc4c(C(C)(C)C)cc(C(C)(C)C)cc4c4cc(C(C)(C)C)cc(C(C)(C)C)c4o3)oc3c(C(C)(C)C)cc(C(C)(C)C)cc3c2c1

Data returned:
1. 54
2. 269

###

For each record, write down the corresponding melting point.
Starred links: 1 amine or outer side, 2 acyl side, 3 side chain; linkers in the order of their positions; H or OH if unused. Non-standard residues stand in square brackets, D forms with d. Residues, ends and D or L forms follow the SMILES beside them. Phe(2-Me) = Cc1ccccc1C[CH](N)C(=O)O; X2 = CC(F)(F)CC(N[*:1])C(=O)[*:2]; Suc = O=C(CCC(=O)[*:2])[*:1]; Tle = CC(C)(C)[CH](N)C(=O)O

Examples with their reported melting point follow.
Data request: Please look up its melting point: `CCCCCCCCCCCCCCCc1cccc(Oc2ccccc2SSc2ccccc2Oc2cccc(CCCCCCCCCCCCCCC)c2)c1`
Data returned: 89 to 90 °C

Data request: Which melting point value belongs to `Cc1c(SCCN2CCOCC2)ccnc1CSc1nc2ccccc2n1CC(=O)N(C)C` ?
Data returned: 178 to 180 °C

Data request: Query: melting point; subject: CC(C)OC(=O)C(CCC(C(=O)OC(C)C)N1CCN(CC(=O)OC(C)(C)C)CCN(C=O)CCN(CC(=O)OC(C)(C)C)CC1)N1CCN(CC(=O)OC(C)(C)C)CCN(C=O)CCN(CC(=O)OC(C)(C)C)CC1 (stereo not drawn)
Data returned: 125 to 127 °C

Data request: Please look up its melting point: CCC1(O)CC(OC2CC(N(C)C)C(OC3CC4OC5CC(=O)C(C)OC5OC4C(C)O3)C(C)O2)c2c(cc3c(c2O)C(=O)c2c(O)cccc2C3=O)C1C(=O)OC (stereo not drawn)
Data returned: 161 °C

Data request: Reported melting point for CC(C)C(NC(=O)N(C)Cc1ccccn1)C(=O)NC(Cc1ccccc1)C(O)C(O)C(Cc1ccccc1)NC(=O)C(NC(=O)N(C)Cc1nccs1)C(C)C (stereo not drawn) : what is it?
Data returned: 96 to 97 °C

Data request: Request the reported melting point associated with `CCCCCCCCCCCCCCCCCCN(CCCCCCCCCCCCCCCCCC)C(=O)c1cc(NS(=O)(=O)c2ccc(NN)nc2)c2ccccc2c1O`
Data returned: 96 to 98 °C

Data request: // query melting point value for entry CCCC(=O)c1cnc2c(C(C)O)cccc2c1Nc1ccccc1C (stereo not drawn)
Data returned: 140 to 142 °C

Data request: Given `O=C(Oc1cccc2cc3cccc(OC(=O)c4ccccc4Oc4ccccc4)c3c(OC(=O)c3ccccc3Oc3ccccc3)c12)c1ccccc1Oc1ccccc1` , state its recorded melting point.
Data returned: 110 °C

Can you give me melting point for all of these, one by one?
1. CC(C)(C)c1cc(C(C)(C)C)c(OP2OP(Oc3c(C(C)(C)C)cc(C(C)(C)C)cc3C(C)(C)C)OP(Oc3c(C(C)(C)C)cc(C(C)(C)C)cc3C(C)(C)C)O2)c(C(C)(C)C)c1 (stereo not drawn)
2. CS(=O)(=O)c1ccc(C(Cc2ccccc2Cl)C(=O)Nc2nc3ccccc3o2)cc1 (stereo not drawn)
3. O=C(Oc1cccc2c(OC(=O)c3ccc(OCc4ccccc4)cc3)c3c(OC(=O)c4ccc(OCc5ccccc5)cc4)cccc3cc12)c1ccc(OCc2ccccc2)cc1
4. CP(C)CCP(C)C

Data returned:
1: 226 to 244 °C; 2: 107 to 108 °C; 3: 240 to 242 °C; 4: 0 °C

Data request: Which measured melting point value corresponds to Cc1ccccc1CC(NC(=O)C(CCC(=O)O)NC(=O)C(CC(=O)O)NC(=O)CCC(=O)O)C(=O)NC(C(=O)NC(CC(C)C)C(=O)NC(C=O)CC(C)(F)F)C(C)(C)C (stereo not drawn) (Suc-DE[Phe(2-Me)][Tle]L[X2]-aldehyde; configuration not given here) ?
Data returned: 128 to 130 °C
